Target: T1, recombinant hIL-6R protein, monomeric form (human, UniProt P08887 20-358)
T1 construct: also called monomeric hIL-6R; Human IL6R
T1 sequence: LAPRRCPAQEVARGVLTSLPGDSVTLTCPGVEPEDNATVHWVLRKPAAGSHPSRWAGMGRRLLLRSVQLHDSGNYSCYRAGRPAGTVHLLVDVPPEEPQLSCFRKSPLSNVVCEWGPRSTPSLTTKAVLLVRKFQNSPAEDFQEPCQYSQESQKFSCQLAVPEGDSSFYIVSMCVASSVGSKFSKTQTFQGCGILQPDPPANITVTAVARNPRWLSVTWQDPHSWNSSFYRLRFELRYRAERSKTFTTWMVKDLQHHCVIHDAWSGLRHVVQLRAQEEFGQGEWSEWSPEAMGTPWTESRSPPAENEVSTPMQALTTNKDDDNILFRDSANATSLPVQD
Test: SPR (BIAcore), antibody captured on goat anti-mouse Fc, monomeric IL-6R 1.25-40 nM injected
measured attribute: kon (M⁻¹ s⁻¹)

# binder, data value
records = [
    ("VV1G4-7 (antibody, IgG2a, V domains shown, Human variable regions with mouse constant region) VH: QVQLVQSGAEVKEPGASVKVSCKASGYTFTSYDIIWVRQATGQGLEWMGWMNPNSGNTGYTQNLQGRVTLTRNTSITTVYMELSSLSSEDTAVYYCARDYSSHYYGLDVWGQGTTVTVSS VL: DIQLTQSPSFLSTSIGDRVTITCWASQDISNYLAWYQQKPGKAPKLLIFVASTLQSGVPSRFSGSGSGTEFTLTISSLQPEDFATYYCQQFNSYPLTFGGGTKVEIK", 257000),
    ("VV6A9-5 (antibody, V domains shown, Human variable regions with mouse constant region; also called VV6A9-5 mIgG2a) VH: EVQLVESGGGLVQPGRSLRLSCAASGFTFDDYALHWVRQAPGKGLEWVSGVSWNGGRIGYADSVKGRFTISRDNAKNSLFLQMNSLRVEDTALYYCAKGRDAFDIWGQGTLVTVSS VL: DIQMTQSPSSVSASVGDRVTITCRASQGISSWLAWYQQKPGKAPKLLIYAASSLQSGVPSRFSGSGSGTDFTLTISSLQPEDFATYYCQHAYSFPYTFGQGTKLEIK", 518000),
    ("VQ8F11-21 (antibody, V domains shown, Human variable regions with mouse constant region; also called VQ8F11-21 mIgG2a) VH: EVQLVESGGGLVQPGRSLRLSCAASRFTFDDYAMHWVRQAPGKGLEWVSGISWNSGRIGYADSVKGRFTISRDNAENSLFLQMNGLRAEDTALYYCAKGRDSFDIWGQGTMVTVSS VL: DIQMTQSPSSVSASVGDRVTITCRASQGISSWLAWYQQKPGKAPKLLIYGASSLESGVPSRFSGSGSGTDFTLTISSLQPEDFASYYCQQANSFPYTFGQGTKLEIK", 851000),
    ("VQ8A9-6 (antibody, V domains shown, Human variable regions with mouse constant region (hybridoma-derived chimeric antibody); also called VQ8A9-6 mIgG1) VH: EVQLVESGGNLVQPGRSLRLSCAASGFIFDDYAMHWVRQAPGKGLEWVSGISWNSGSIGYADSVKGRFTISRDNAKNSLYLQMNSLRAEDTALYYCAKDGGSSWLPFVYYYGMDVWGQGTTVTVSS VL: EIVMTQSPATLSVSPGERATLSCRASQSISSNFAWYQQKPGQAPRLLIYGASTRATGIPARFSGSGSGTDFTLTISSLQSEDFAVYYCQQYSSWPPYTFGQGTKLEIK", 732000),
]
